Molecular target: human CB2 (Homo sapiens)
Construct: expressed in transfected cells; host or cells: CHO cells
Sequence (P34972 whole entry): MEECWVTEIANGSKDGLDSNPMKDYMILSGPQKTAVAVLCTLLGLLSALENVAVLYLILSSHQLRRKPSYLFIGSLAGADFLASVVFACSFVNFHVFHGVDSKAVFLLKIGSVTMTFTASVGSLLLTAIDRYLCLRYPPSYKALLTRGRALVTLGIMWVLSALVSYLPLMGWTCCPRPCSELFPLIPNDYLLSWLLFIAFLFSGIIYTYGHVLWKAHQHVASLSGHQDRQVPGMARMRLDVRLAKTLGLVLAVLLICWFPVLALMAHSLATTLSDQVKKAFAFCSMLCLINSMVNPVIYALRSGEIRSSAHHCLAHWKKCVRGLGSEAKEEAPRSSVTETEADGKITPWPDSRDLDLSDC
Test: Human CB2-mediated cyclic AMP (cAMP) production inhibition assay
Format: cell-based
Conditions: CHO, 30 nM test substance; human CB2-expressing CHO cells; forskolin 0.5 μM; 30 minutes at room temperature; read-out: Inh (%): inhibitory rate of cAMP increase
assay-endpoint: inhibition at 0.03 µM (%)

I = O=C(c1cnc(NC23CC4(F)CC(F)(CC(F)(C4)C2)C3)nc1C(F)(F)F)N1CCS(=O)(=O)CC1 [Example 109]
II = O=C(c1cnc(N[C@H]2C[C@@H]3CC[C@H]2C3)nc1C(F)(F)F)N1CCS(=O)(=O)CC1 [Example 138]
In: Hi, I'm comparing two records. Which one has the lower inhibition at 0.03 µM, I or II ? Selection: enter the item's label.
Out: II

Reference for the values: patent US8524727B2
